So I've got a bunch of molecules here, and I need their solubility values.
Test: Solubility in water (UV-visible spectrometry)
Format: physicochemical
Details: water
Numbers only here, please. The scale is µM.

Q) Tell me the measured solubility of CC(O)c1cccc(C(F)(F)C(F)(F)C(F)(F)F)c1 (stereo not shown) , please.
A) 420

Q) Consider the molecule `OCc1cc(C(F)(F)C(F)(F)C(F)(F)C(F)(F)F)cc(C(F)(F)C(F)(F)C(F)(F)C(F)(F)F)c1` and give its measured solubility.
A) 0.5

----------
Experiment: pKa in water at 25° C.
Assay type: physicochemical
What pKa was measured for each of the following?
Answer with the value's number alone.

Q) Quick one: pKa of OCc1cc(C(F)(F)F)cc(C(F)(F)F)c1 [ASM 3, [3,5-Bis(Trifluoromethyl)phenyl]methanol] ?
A) 14.7

Q) // lookup pKa for `OCc1cc(C(F)(F)C(F)(F)C(F)(F)C(F)(F)F)cc(C(F)(F)C(F)(F)C(F)(F)C(F)(F)F)c1`
A) 14

Q) Bench note: what pKa did `OCc1cc(C(F)(F)F)c(C(F)(F)F)c(C(F)(F)F)c1` show?
A) 13.6

Q) Form field: reported pKa of OCc1cc(C(F)(F)C(F)(F)C(F)(F)F)cc(C(F)(F)C(F)(F)C(F)(F)F)c1 [ASM 6, [3,5-(Perfluoropropyl)phenyl]methanol]
A) 14.2

Q) Need pKa of OCc1cccc(C(F)(F)F)c1 [ASM 2, [3-(Trifluoromethyl)phenyl]methanol] , thanks.
A) 14.7

Q) Return reported pKa; argument: `Oc1cccc(C(F)(F)F)c1`
A) 8.68

Q) Report pKa for OCc1cccc(C(F)(F)C(F)(F)C(F)(F)C(F)(F)F)c1 [ASM 5, [3-(Perfluorobutyl)phenyl]methanol] please.
A) 14.7

Data origin, for the record: patent US11731933B2
